Can you tell me Kb for the items I'm about to list?
EXPERIMENTAL SYSTEM: human orexin-2 (hOX2) receptors (Homo sapiens)
Construct: expressed in transfected cells
Sequence (O43614 1-444): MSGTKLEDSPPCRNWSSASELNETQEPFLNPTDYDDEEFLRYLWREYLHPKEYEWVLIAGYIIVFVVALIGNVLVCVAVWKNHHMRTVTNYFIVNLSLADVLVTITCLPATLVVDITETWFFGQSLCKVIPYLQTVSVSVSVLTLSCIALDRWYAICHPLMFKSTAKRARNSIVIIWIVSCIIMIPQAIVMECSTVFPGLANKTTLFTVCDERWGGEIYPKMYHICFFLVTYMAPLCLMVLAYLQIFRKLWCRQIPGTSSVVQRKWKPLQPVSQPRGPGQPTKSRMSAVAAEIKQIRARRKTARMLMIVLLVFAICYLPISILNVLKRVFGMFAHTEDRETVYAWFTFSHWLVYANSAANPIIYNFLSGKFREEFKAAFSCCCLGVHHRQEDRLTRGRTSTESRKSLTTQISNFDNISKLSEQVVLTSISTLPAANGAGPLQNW
PROTOCOL: Intracellular Ca2+ mobilization assay (FLIPR), antagonism of orexin-A
Assay type: cell-based
MEASUREMENT CONTEXT: CHO(dHFr−) cells stably expressing hOX2; orexin-A at EC80 as agonist; Kb=IC50/(1+[A]/EC50); read-out: Kb (μM) OX2R (human)
Give bare numbers, in µM.

CNC(=O)[C@H](N[C@@H](CCc1ccc(C(F)(F)F)nc1)c1ccc(F)c(C)c1)c1ccccc1 (racemic) [Example 228]    0.0035
CNC(=O)[C@H](N[C@@H](CCc1ccc(F)cc1)c1ccc(OC)c(OC)c1)c1ccccc1 (single isomer, unassigned) [Example 144]    0.0097

Your task in this section: give Kb for each listed record.
1. CNC(=O)[C@H](N[C@@H](CCc1ccc(Cl)cc1)c1ccc(OC)c(OC)c1Cl)c1ccccc1 [Example 98]
2. CNC(=O)[C@H](N[C@@H](CCc1ccc(C(F)(F)F)nc1)c1ccc(Cl)c(C)c1)c1ccccc1 (racemic) [Example 244]
3. CNC(=O)[C@H](N[C@@H](CCc1ccc(C(F)(F)F)cc1)c1ccc(OC)c(OC)c1)c1ccccc1 (racemic) [Example 142]

0.0014
0.0145
0.003

====

EXPERIMENTAL SYSTEM: human orexin-2 (hOX2) receptors (Homo sapiens)
Construct: expressed in transfected cells
Sequence (O43614 1-444): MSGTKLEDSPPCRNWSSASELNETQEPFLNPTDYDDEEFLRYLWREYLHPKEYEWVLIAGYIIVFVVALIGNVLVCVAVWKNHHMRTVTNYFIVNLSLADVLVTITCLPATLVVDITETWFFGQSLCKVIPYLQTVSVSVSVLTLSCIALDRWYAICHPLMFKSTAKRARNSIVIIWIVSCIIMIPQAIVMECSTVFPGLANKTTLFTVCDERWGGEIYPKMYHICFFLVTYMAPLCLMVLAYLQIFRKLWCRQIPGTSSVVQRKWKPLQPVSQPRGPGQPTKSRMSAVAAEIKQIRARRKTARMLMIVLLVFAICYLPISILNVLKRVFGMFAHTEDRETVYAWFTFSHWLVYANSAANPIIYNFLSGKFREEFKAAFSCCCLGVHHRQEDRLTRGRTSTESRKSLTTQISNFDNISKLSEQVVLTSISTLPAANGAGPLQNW
PROTOCOL: Intracellular Ca2+ mobilization assay (FLIPR), antagonism of orexin-A
Assay type: cell-based
MEASUREMENT CONTEXT: CHO(dHFr−) cells stably expressing hOX2; orexin-A at EC80 as agonist; Kb=IC50/(1+[A]/EC50); read-out: Kb (μM) OX2R (human)
Hi there, I'd appreciate the recorded Kb for every entry that follows.
One number for each entry, in µM.

CNC(=O)[C@H](N[C@@H](CCc1ccc(Cl)cc1)c1ccc(OC)c(OC)c1)c1ccc(Cl)cc1 (racemic) [Example 319]    0.0086
CNC(=O)[C@H](N[C@@H](CCc1cnc(Cl)cn1)c1ccc(OC(F)F)c(OC(F)F)c1)c1ccccc1 (racemic) [Example 297]    0.0153
CNC(=O)[C@H](N[C@@H](CCc1ccc(C(F)(F)F)cc1)c1cc(OC)ccn1)c1ccccc1 (racemic) [Example 210]    0.0096
CNC(=O)[C@H](N[C@@H](CCc1ccc(Cl)cc1)c1ccc(OC)c(OC)c1Cl)c1ccccc1 (racemic) [Example 40]    0.0068

Dear colleague, could you please provide Kb for the compounds listed below?
1. CNC(=O)[C@H](N[C@@H](CCc1ccc(C(F)(F)F)cc1)c1ccc(OC)c(OC)c1)c1ccc(Cl)cc1 [Example 94]
2. CNC(=O)[C@@](C)(N[C@@H](CCc1ccc(C(F)(F)F)cc1)c1ccc(OC)c(OC)c1)c1ccccc1 (single isomer, unassigned) [Example 29]
3. CNC(=O)[C@H](N[C@H](CCc1cccc(C(F)(F)F)c1)c1ccc(OC)c(OC)c1)c1ccccc1 (racemic) [Example 320]

0.0051
0.0184
0.0021

Could I get Kb for every one of these entries?
1. CNC(=O)[C@H](N[C@@H](CCc1ccc(C(F)(F)F)nc1)c1cc(C)ccc1F)c1ccc(F)cc1 [Example 107]
2. CNC(=O)[C@H](N[C@@H](CCc1ccc(C(F)(F)F)nc1)c1ccc(Cl)c(OC)c1)c1ccccc1 (racemic) [Example 216]
3. CNC(=O)[C@H](N[C@@H](CCc1ccc(C)nc1)c1ccc(F)c(C)c1)c1ccccc1 [Example 262]
4. CNC(=O)[C@H](N[C@@H](CCc1ccc(C(F)(F)F)nc1)c1ccc2c(c1)CCCC2)c1ccc(F)cc1 [Example 102]
5. CNC(=O)[C@H](N[C@@H](CCc1ccc(C(F)(F)F)nc1)c1ccc(C)c(C)c1)c1ccccc1 (racemic) [Example 251]
6. CNC(=O)[C@H](N[C@@H](CCc1ccc(C)cc1)c1ccc(F)c(C)c1)c1ccccc1 [Example 397]

[0.0124, 0.0073, 0.0173, 0.0114, 0.0022, 0.0042]

Provide value of Kb for this record tested with human orexin-2 (hOX2) receptors (Homo sapiens): CNC(=O)[C@H](N[C@@H](CCc1ccc(C(F)(F)F)cc1)c1ccc(OC)c(OC)c1)c1ccc(F)cc1 (racemic) [Example 34] 0.0049
